These measurements were taken from the supplement of paper PMC9732359.

Listed here are sequences together with their documented protein stability index.
- METHOD NOTES: protein stability index of a GFP-peptide fusion (yeast GPS) (PSI 1-4); higher = more stable; sorted into four equal gates, so the index is relative within each strain
- TEST CONDITIONS: pdr5∆
Output: the number by itself.

Some sequences with recorded protein stability index:
>>> assay_value("NKYPELLGKDNEDDALI [AAR2]")
3.19
>>> assay_value("LLDKYGKTGLSNMILGS [YML103C/NUP188]")
2.75
>>> assay_value("GFEQVKIALGSPIVNVL [RRI2]")
2.78

So what does the record say about protein stability index for TDVKLTLPQPRLNKLNS [SMD1] ?
2.79

Also, TPDDDEIDVENHDRINI [RPN8] please.
3.5

Also, KKSRLGNSFHLMRELLK [PRP8] please.
2.71

Also, SGSLFGSNNAQTSRGLF [YGL172W/NUP49] please.
3.01
